experiment: soluble fraction after stress (log2 fold change); higher = more stays soluble; pooled small domains, quantitative proteomics; conditions: stress: pH 4
Reported soluble fraction (log2) values are given for each entry in this list.
Give the value as a plain number.

// worked examples, soluble fraction (log2) included
HMYIEKTAYINDTAVNVRKSATTDSDVIKVLALNTEITIIGEENDWYKVKSGNDIGYIAKRLVSDQKKE : -0.109
HMSTFKSYRGKITASSGVNIRTGAGTNYNKNGALTYNSVVTIVDEKKVSGTTWGKLADGRGWISLDYLKK : 0.105
HMLIIMNSDATKEQVDHVTSRVREAGFKDHIMPGAGKVAIGVTGTGDYDQTKLHLEILPGVFKIMRITK : -0.0509
HMELTKAELEVMQILWKLKKAFVGDILDRMVEPKPAYNTVSTVVRLLEKKGVVGHESFGKSHRYYPL : -0.0549
HMNNMVNTLLKLLAEQDVLRGIVRRFTPSSVFVFLQNEEVEVELPLQGRSLAPGQLVELTQEGASVALKRL : -0.679

Given item HMPMIQHFHRMISAALGISEKQIVQTLGLLNDGATIPFISRYRKEVTGGLDEVQIESIKTHYEKLNEIAK , the value recorded as its soluble fraction (log2) is -0.999

Given item HMYSSASKEEIDQLMKRLILNLDAKGYFWPQDKEKSLKLYLHNLFSKLPLNSSDIRFLHGLIRALSEE , the value recorded as its soluble fraction (log2) is -0.693

Given item HMAEGPYSGKKVEKYPGGMEKRETMYSEGKLTRVTEFHQSGQKKMEVKVDANGQWKRLYWDNNGNPT , the value recorded as its soluble fraction (log2) is -0.086

Given item HMVWMIEKDQSVILVNKLERIQVEALGKALENGNFGDRIRVINNKSGQKLLGIVESEKKIQIISKI , the value recorded as its soluble fraction (log2) is -0.077

Given item HMKIDELKAYLFQSVRVKNPHTQEYDTLKIIELNYYQDKIKAKLKNSDDDYITEMIFESIKHLQNFLG , the value recorded as its soluble fraction (log2) is -1.98

---

test: soluble fraction after stress (log2 fold change); higher = more stays soluble; pooled small domains, quantitative proteomics; settings: stress: pH 4
Class definitions on soluble fraction (log2): lo: < -0.8; mid: ≥ -0.8 and < 0.002; hi: ≥ 0.002

Sample answers from the record:
HMDISKTLGKNPLLIIDNIEYRGKTLDEITAMTGVKRFENIDIYGSEEAMKTYGEKAKDGVIIAYTT : mid
HMSGMEKLAIQEIEKEIKSFVKGDILIELTGKNRATAYVSEKNVGALIGKKGERINSIEKRLGVGIDVRPY : mid
HMPTPASGSSGYINATNVNFRTGPATSYKSISKLAKNTAVTILGTSGNWYKVTVGSLGKNGYVFATYVTVS : mid
HMNKWMQLASEEDKKLFNEAPKEIQDSITESAKFFDIRTKADVDTFWANTGLRQMKQQAMLNESFVNEY : mid
HMDPLPDEVQEVIDMVDGFKAMDELSEADKADVKAAYDAYNALSAEHKAMVPEHIVTFLNRAYDKLFD : lo
HMNLDMVINKIGIVTEDIKQDKIGEVKVLGKRWSAYSNTELKKDEKVKILSIDGVKLKVEKI : hi

**Query** Kindly identify the class of HMNTDVEKQKVFTALFDDYFRRNSMTSLEKQLFLTALKTNFQNAQKTVAKDHPYYATYSLIISAIENYR .
**Result** lo

**Query** Kindly identify the class of HMLKEDSAYELGLRIFDQALNDYGTSFIDLKEDEYKKVLSIYGYSNPRQLIINIGLGNVIPHLLARDITE .
**Result** lo

**Query** Kindly identify the class of HMEWTDIPTHKVPNVVGKSVEEAKKKLSKFTIEYSGTGEKVVAQSPDAGEKLEEGGTVRLLL .
**Result** mid

**Query** Kindly identify the class of HMGLNELQVKLNEAMQRLSLKHRTVVVMHDIEGIPHDEIAKIVGVSVGTIRSRLFYARRQLQADLGEY .
**Result** lo

**Query** Kindly identify the class of HMQQEAVSGKLLQLDLAKKEGRLSTDLGREVLFHIPKPELFVHLSVGQRIIIKLDAGQEAVGV .
**Result** hi

**Query** Kindly identify the class of HMAKQQTTTTAHVVTTGETLYSIAQKNGISVEELKKSNNITSDKLRPGQTLHITKVSKTSSTAK .
**Result** hi

**Query** Kindly identify the class of HMTFKDIMENYTISRIENTINSAVVFLDEINAYITIDKTQLPSNLRYDTDSKIMASQIPDDAKIKYFMIYW .
**Result** lo

**Query** Kindly identify the class of HMESRLQAAIALRKAGEHEQSREALKILADEPALRAQALLNIAWSFDNQGHERDAEGYYLAAIE .
**Result** hi

**Query** Kindly identify the class of HMVDISLSDRELEVLRLLAMGLSNADISRRLYLSEGTIRNYMSGIFSKLNVSDRTQAVVIALREGLVNL .
**Result** lo

**Query** Kindly identify the class of HMSRELVILGNSMLNNALKAFHVSPASIKKKHWDKLILDYHLESKNNILIDIALGKRINVMVAHQLTSIID .
**Result** hi

**Query** Kindly identify the class of HMKTYEILFDILSRESDYISGEKLAQELGISRTSIWKAIQHLEKEGVHIESVKNKGYKLLSGDLLIAEKI .
**Result** mid

**Query** Kindly identify the class of HMDGYVPAERIASEVGVSARTITREMHGLEMTLMPYGIALLRRTGAGFMLAGTAKALADLRKHMTEDADTQ .
**Result** hi

**Query** Kindly identify the class of HMTELKKTAVDTWVKDLGTEQALAKLDTLAVVKLRRLAREYKAFGIAGRAISKADKGMLLAEFRAYYEN .
**Result** hi

**Query** Kindly identify the class of HMATFTPYLVRITASVLNIRKGPGTTYAVTGQIKDRGVYTIVEQKGNWGRLKSGAGWISLSYTKK .
**Result** hi

**Query** Kindly identify the class of HMDGVTEYTVKSGDSFSAIINKHYNVNYDEKLMQAVAAYNNIEDMNKLQLGQIIKLPPKEQLNL .
**Result** mid

**Query** Kindly identify the class of HMFDLDIEQIANDLKHGVMPNLYGLSLQDALYLLEAKGIRVKVAGSGSVVNQSIKTGAYVGSGSVLKLEL .
**Result** lo

**Query** Kindly identify the class of HMAAIPEQVSEEVVSAVKASGIDPGKVTKEQWTSLLKGRRTALGSSSGKLFMLSKAPVGYTLKAVNA .
**Result** mid
